- System: carbonic anhydrase II (CA)
- METHOD DESCRIPTION: Intact protein MS photoaffinity labeling screen, carbonic anhydrase
- Assay type: binding
- REPORTED CONDITIONS: intact protein MS after 10 min irradiation
MEASURED ENDPOINT: MS labeling percentage, CA

// solved cases for MS labeling percentage, CA follow
>>> print(df.to_string())
                                   molecule  meas_value
0  COc1ccc(OC)c(C(O)C(C)NC(=O)CCC2(C)N=N2)c1 (stereo not drawn)        3.6%
1  CC1(CCC(=O)NCc2ccc(CNC(=O)OC(C)(C)C)cc2)N=N1       12.8%

Below: the item to evaluate.
Reported MS labeling percentage, CA of CC1(CCC(=O)NC(CO)Cc2c[nH]c3ccccc23)N=N1 (stereo not drawn) : 0.5%
